target: Somatostatin receptor type 1 (Homo sapiens, UniProt P30872)
Sequence (P30872 whole entry): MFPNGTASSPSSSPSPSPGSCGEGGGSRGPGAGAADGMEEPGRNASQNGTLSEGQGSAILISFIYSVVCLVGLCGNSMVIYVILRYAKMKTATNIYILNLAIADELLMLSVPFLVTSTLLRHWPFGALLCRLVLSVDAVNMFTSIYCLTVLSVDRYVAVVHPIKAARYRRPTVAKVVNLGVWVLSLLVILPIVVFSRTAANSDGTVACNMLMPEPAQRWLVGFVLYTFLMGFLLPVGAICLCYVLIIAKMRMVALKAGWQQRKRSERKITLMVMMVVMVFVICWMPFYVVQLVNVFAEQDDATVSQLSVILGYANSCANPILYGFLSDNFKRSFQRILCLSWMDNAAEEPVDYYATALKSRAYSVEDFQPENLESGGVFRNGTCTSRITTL
pIC50: −log10 of the molar value.
Metric: pIC50

>  <Smiles Text>
CC(=O)N[C@@H]1CCSSC[C@@H](C(=O)O)NC(=O)[C@H](Cc2ccccc2)NC(=O)[C@H]([C@@H](C)O)NC(=O)[C@H](CCCCN)NC(=O)[C@@H](Cc2c[nH]c3ccccc23)NC(=O)[C@H](Cc2ccccc2)NC(=O)[C@H](Cc2ccccc2)NC1=O

>  <Experimental System>
Somatostatin receptor type 1 (Homo sapiens, UniProt P30872)

>  <Test Value>
6.66

$$$$
>  <Smiles Text>
CC(=O)N[C@H]1SS[C@@H](C(=O)O)NC(=O)[C@H](Cc2ccccc2)NC(=O)[C@H]([C@@H](C)O)NC(=O)[C@H](CCCCN)NC(=O)[C@@H](Cc2c[nH]c3ccccc23)NC(=O)[C@H](Cc2ccccc2)NC(=O)[C@H](Cc2ccccc2)NC1=O

>  <Experimental System>
Somatostatin receptor type 1 (Homo sapiens, UniProt P30872)

>  <Test Value>
< 6.00

$$$$
>  <Smiles Text>
CC(=O)N[C@H]1CSS[C@@H](C(=O)O)NC(=O)[C@H](Cc2ccccc2)NC(=O)[C@H]([C@@H](C)O)NC(=O)[C@H](CCCCN)NC(=O)[C@@H](Cc2c[nH]c3ccccc23)NC(=O)[C@H](Cc2ccccc2)NC(=O)[C@H](Cc2ccccc2)NC1=O

>  <Experimental System>
Somatostatin receptor type 1 (Homo sapiens, UniProt P30872)

>  <Test Value>
< 6.00

$$$$
>  <Smiles Text>
C[C@@H](O)[C@@H]1NC(=O)[C@H](CCCCN)NC(=O)[C@@H](Cc2c[nH]c3ccccc23)NC(=O)[C@H](Cc2ccccc2)NC(=O)[C@H](Cc2ccccc2)NC(=O)[C@@H](N)CSSC[C@H](C(=O)O)NC(=O)[C@H](Cc2ccccc2)NC1=O

>  <Experimental System>
Somatostatin receptor type 1 (Homo sapiens, UniProt P30872)

>  <Test Value>
< 6.00

$$$$

// provenance: ChEMBL document CHEMBL1150262
